This collection of values is drawn from ChEMBL document CHEMBL1201862.

Procedure Summary: Luminescence Cell-Based Dose Confirmation HTS to Identify Inhibitors of Platelet Dense Granule Release. [Related pubchem assays: 1663 (Primary HTS), 1678 (Summary of Project)]
Type: functional
Calls of active or inactive are those of the source. Cut-off read from the data, not from the text of the source: actives have a measured EC50 and inactives only a lower limit.
Test Readout: EC50

Solved entries (count: 5):
- Molecule: "Cc1cccc(OCCN2CSC(=S)N(C)C2)c1"
  EC50: "> 112 µM (not active)"
- Molecule: "CC(=O)c1ccc(NC(=O)c2cc[nH]n2)cc1"
  EC50: "7.07 µM (active)"
- Molecule: "COn1c(C)c(C(C)=O)c2c3nonc3ccc21"
  EC50: "> 112 µM (not active)"
- Molecule: "CS(=O)(=O)c1ncc(Cl)c(C(=O)Nc2ccc3ccccc3c2)n1"
  EC50: "3.6 µM (active)"
- Molecule: "O=C(O)C1C2C=CC(C2)C1C(=O)NCc1ccco1 (stereo unspecified)"
  EC50: "> 112 µM (not active)"

Proceeding to the next molecule to report its EC50.
Problem: Please report EC50 for the following molecule: COc1ccc(-c2csc(CCn3nc(C)cc3C)n2)cc1OC
Solution: > 112 µM (not active)
